B1: LINE1-mini (parent)
chain: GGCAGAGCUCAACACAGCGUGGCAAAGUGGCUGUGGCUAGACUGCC

- Variants of: B1
- PROTOCOL TEXT: self-cleavage, relative activity (ratio to wild type); higher = more cleavage; in vitro, sequencing; the parent is a self-cleaving ribozyme

{"SEQUENCE STRING": "GGCAGAGUUCAACACAGCGUGGCAAAGUGGCUGUGGCUAGACUGCU", "self-cleavage": 0.56}
{"SEQUENCE STRING": "GGCAGAGCUCAACACAGCGUGGCAAAAUGGCUGUGCCUAGACUGCC", "self-cleavage": 0.25}
{"SEQUENCE STRING": "GGCAGAGCUCAACACAGCGUGGCAACGUGGCUGAGGCUAGACUGCC", "self-cleavage": 0.1}
{"SEQUENCE STRING": "GGCAGAGCUCAACACAGCGUGGAAAAGUGGCAGUGGCUAGACUGCC", "self-cleavage": 0.11}
{"SEQUENCE STRING": "GGCGGAGUUCAACACAGCGUGGCAAAGUGGCUGUGGCUAGACUGCC", "self-cleavage": 0.24}
{"SEQUENCE STRING": "AGCAGAGCUCAACACAGCGAGGCAAAGUGGCUGUGGCUAGACUGCC", "self-cleavage": 1.27}
{"SEQUENCE STRING": "GGCAGAGCUCAACACAGCGUGGCAAAGCGGCUGUGACUAGACUGCC", "self-cleavage": 0.1}
{"SEQUENCE STRING": "GGCAGAGCUCAACACAGCGUGGCAAAGUGGCUGUGGAUGGACUGCC", "self-cleavage": 0.05}
{"SEQUENCE STRING": "GGCAGCGCUCAACACAGCGUGGCAAAGUGGCUGUGGCUAGACUGCU", "self-cleavage": 0.89}
{"SEQUENCE STRING": "GGUAGAGCUCAACACAGCGUGGCAAAGUGGCUGUGGCCAGACUGCC", "self-cleavage": 0.19}
{"SEQUENCE STRING": "GGCAGAGCUCAACACAGCGUGGCAAAGUGGCUGGGGCUCGACUGCC", "self-cleavage": 0.05}
{"SEQUENCE STRING": "GGCAGCGCUCGACACAGCGUGGCAAAGUGGCUGUGGCUAGACUGCC", "self-cleavage": 0.02}
{"SEQUENCE STRING": "GGGAGAGCUCAACACAGCGUGGCAAAGUGGCUGUGGCUAGACUGCU", "self-cleavage": 0.17}
{"SEQUENCE STRING": "GGCAGAGCUCAACACAGCGUGGCAAAGUGGAAGUGGCUAGACUGCC", "self-cleavage": 0.05}
{"SEQUENCE STRING": "GGCAGAGCUCAACACAGCGUGGCAAAGUAGCUGCGGCUAGACUGCC", "self-cleavage": 0.08}
{"SEQUENCE STRING": "GGCAGAGCUCAACACAGCGUGGCAAAGUGGCUGUGGCUAAACUUCC", "self-cleavage": 0.08}
{"SEQUENCE STRING": "GGCAGAGCUCUACACAGCGUGGCAAAGUGUCUGUGGCUAGACUGCC", "self-cleavage": 0.18}
{"SEQUENCE STRING": "GGCAGAGCUCAACACAGCGUGGCUUAGUGGCUGUGGCUAGACUGCC", "self-cleavage": 1.48}
{"SEQUENCE STRING": "GGCAGAGCUCAAGACAGCGUGGCAAAGUGGCUGUUGCUAGACUGCC", "self-cleavage": 0.85}
{"SEQUENCE STRING": "GGCAGAGCUCAUCACAGCGUGCCAAAGUGGCUGUGGCUAGACUGCC", "self-cleavage": 0.26}
{"SEQUENCE STRING": "GGCAGAGCUCAACACGGCGUGGCAAAGUGGCUGUGGCGAGACUGCC", "self-cleavage": 0.01}
{"SEQUENCE STRING": "GGCAGAGCUCAACAGAGCGUGGCAAAUUGGCUGUGGCUAGACUGCC", "self-cleavage": 0.04}
{"SEQUENCE STRING": "GGCAGAGCACAACACAGCGUGGCAAAGUGGCUGUGGCUAGACUGCA", "self-cleavage": 0.17}
{"SEQUENCE STRING": "GGCAGAGCUGAACACUGCGUGGCAAAGUGGCUGUGGCUAGACUGCC", "self-cleavage": 0.06}
{"SEQUENCE STRING": "AGCAGAGCUCAACACAGCGUGGCAAAGUGGCUGUGGCUACACUGCC", "self-cleavage": 0.07}
{"SEQUENCE STRING": "GGCAGAGCUCAACACAGAGUGGCAAAGUGGCUGUGGCUAGACUGCC", "self-cleavage": 0.85}
{"SEQUENCE STRING": "GGCAGAGCUCAAAACAGCGUGGCAAAGUGGCUGUGACUAGACUGCC", "self-cleavage": 0.23}
{"SEQUENCE STRING": "GGCAGAGCUCAACACGGCGUGGCAAAGUGGCUAUGGCUAGACUGCC", "self-cleavage": 0.03}
{"SEQUENCE STRING": "GGCAGAGUUCAACACAGCGUGGCAAAGUGGCUGUGGAUAGACUGCC", "self-cleavage": 0.14}
{"SEQUENCE STRING": "GGCAGAGCUCAACACAGCGUGGCACAGUGGCUGAGGCUAGACUGCC", "self-cleavage": 0.12}
{"SEQUENCE STRING": "GGCUGAGCUCAACACAGCGUGGCAAAGUGGCUGUGGCUAGAUUGCC", "self-cleavage": 0.14}
{"SEQUENCE STRING": "GGCAGAGCUCAACACAGCGUGGCUAAGUGGCUGUGGCAAGACUGCC", "self-cleavage": 0.34}
{"SEQUENCE STRING": "GACAGAGCUCAACACAGCGUGGCAAAGUGGCUGCGGCUAGACUGCC", "self-cleavage": 0.19}
{"SEQUENCE STRING": "GGCAGAGCUCAACAUAGCGUGGCUAAGUGGCUGUGGCUAGACUGCC", "self-cleavage": 0.32}
{"SEQUENCE STRING": "GGCAGAGCUCAACCCACCGUGGCAAAGUGGCUGUGGCUAGACUGCC", "self-cleavage": 0.04}
{"SEQUENCE STRING": "GGCAGAGCUCAACACUGCGUGGCUAAGUGGCUGUGGCUAGACUGCC", "self-cleavage": 0.11}
{"SEQUENCE STRING": "GGCAGAAUUCAACACAGCGUGGCAAAGUGGCUGUGGCUAGACUGCC", "self-cleavage": 0.43}
{"SEQUENCE STRING": "GGCAGAGCUCAACACAGCGUGACAAAGUGGCUGUGGCUAGCCUGCC", "self-cleavage": 0.09}
{"SEQUENCE STRING": "GGCAGAGCUCAACACAGCGUGGCAAAGUGGCUGUGACUAGAUUGCC", "self-cleavage": 0.15}
{"SEQUENCE STRING": "GGCAGAGCUCCACACAGCGUGGCAAAGUGGCUGUUGCUAGACUGCC", "self-cleavage": 0.02}
{"SEQUENCE STRING": "GGCAGAGCUCAACACAGCUUGGCAAAGUGGCUGUGGUUAGACUGCC", "self-cleavage": 0.04}
{"SEQUENCE STRING": "GGCAGAGCUCUACACAGCGUGGCAAGGUGGCUGUGGCUAGACUGCC", "self-cleavage": 0.13}
{"SEQUENCE STRING": "GGCAGAGCUCAUCACAGCGUGGCAAAGUGACUGUGGCUAGACUGCC", "self-cleavage": 0.48}
{"SEQUENCE STRING": "GGCAGAGCUCAACACCGCGUGGCAAAGUGGCUGUGGCUCGACUGCC", "self-cleavage": 0.02}
{"SEQUENCE STRING": "GGCAGAGCUCAACACAACCUGGCAAAGUGGCUGUGGCUAGACUGCC", "self-cleavage": 1.09}
{"SEQUENCE STRING": "GGCAGAGCUCAACACAGCCUGGCAAAGUGGCGGUGGCUAGACUGCC", "self-cleavage": 0.43}
{"SEQUENCE STRING": "GGGAGAGCUCAACACAGCGUGGGAAAGUGGCUGUGGCUAGACUGCC", "self-cleavage": 0.2}
{"SEQUENCE STRING": "GGCAGAUCCCAACACAGCGUGGCAAAGUGGCUGUGGCUAGACUGCC", "self-cleavage": 0.04}
{"SEQUENCE STRING": "GGCGGAGCUCAACACAGCGUGGCAAAGUGGCUGUGACUAGACUGCC", "self-cleavage": 0.54}
{"SEQUENCE STRING": "GGCGGAGCUAAACACAGCGUGGCAAAGUGGCUGUGGCUAGACUGCC", "self-cleavage": 0.06}
{"SEQUENCE STRING": "GGCAGCGCUCAACACAGCGUGGCAAAGUGGCUGUGGCUUGACUGCC", "self-cleavage": 0.68}
{"SEQUENCE STRING": "GGGAGAGGUCAACACAGCGUGGCAAAGUGGCUGUGGCUAGACUGCC", "self-cleavage": 0.08}
{"SEQUENCE STRING": "GGCAGAGCUCAACACGGCGUGGCAAAGUGGCUGUGGCUAGACGGCC", "self-cleavage": 0.08}
{"SEQUENCE STRING": "GGCAGAGCUCAACACACCGUGGCAAAGUGGCUGUAGCUAGACUGCC", "self-cleavage": 0.11}
{"SEQUENCE STRING": "GGCAGAGCUCAACCCAGCGUGCCAAAGUGGCUGUGGCUAGACUGCC", "self-cleavage": 0.1}
{"SEQUENCE STRING": "GGCAGAGCUCAACACAGCGUGGCAAAGUGUCUGUGGCUAUACUGCC", "self-cleavage": 0.13}
{"SEQUENCE STRING": "GGCAGAGGUCAACACAGCGUGGCUAAGUGGCUGUGGCUAGACUGCC", "self-cleavage": 0.3}
{"SEQUENCE STRING": "GGCAGAGCUCAACACAGCGUGGCAAAGUGGCUGUGGCUAGAAUACC", "self-cleavage": 0.25}
{"SEQUENCE STRING": "GGCAGAGCUCAACACAGCGUGGUAAAGCGGCUGUGGCUAGACUGCC", "self-cleavage": 1.37}
{"SEQUENCE STRING": "GGCAGAGCUCAACACAGCGUGGAAAAGUGGCUGUGGCUCGACUGCC", "self-cleavage": 0.27}
{"SEQUENCE STRING": "GGCAGUGCUCAACACAGCGUGGCAAAGUGGCUGUGGCUAGAUUGCC", "self-cleavage": 0.42}
{"SEQUENCE STRING": "GGCAGAGCUCAACACAGCGUGGCAAAGUGGCUGUGGCUGGCCUGCC", "self-cleavage": 0.03}
{"SEQUENCE STRING": "GAAAGAGCUCAACACAGCGUGGCAAAGUGGCUGUGGCUAGACUGCC", "self-cleavage": 1.93}
{"SEQUENCE STRING": "AGCAGAGCUCAACACAGCUUGGCAAAGUGGCUGUGGCUAGACUGCC", "self-cleavage": 0.94}
{"SEQUENCE STRING": "GGGAGAGCUCAACACAGCGUGGCAAAGUGGCUGUGGCUAGACUGCA", "self-cleavage": 0.36}
{"SEQUENCE STRING": "GGCAGAGCUCAACACAGCGUGGCAAAAUGGCUGUGGCUAGUCUGCC", "self-cleavage": 0.49}
{"SEQUENCE STRING": "GGCAGAGCUAAACACAGCGUGGCAAAGUGUCUGUGGCUAGACUGCC", "self-cleavage": 0.09}
{"SEQUENCE STRING": "GGCAGAGCUCAACACAGCGUGGCAAAGUUGCUGUGGCUAGACUGCU", "self-cleavage": 1.51}
{"SEQUENCE STRING": "GGCAGAGCUCAACACAGCGUGGGAAAGUGGCUGUAGCUAGACUGCC", "self-cleavage": 0.14}
{"SEQUENCE STRING": "GGCAGAGCUCAACACAGCGUGGCAAAGUGGCUGUGACUAGAAUGCC", "self-cleavage": 0.16}
{"SEQUENCE STRING": "GGCAGAACUCAACACAGCGUGGCAAAGGGGCUGUGGCUAGACUGCC", "self-cleavage": 0.16}
{"SEQUENCE STRING": "GGCAGUGCUCAACACAGCGUGGCAAAGUGGCUGUGGCUAGACUGCA", "self-cleavage": 0.74}
{"SEQUENCE STRING": "GGCAGAUCUCAACACAGCGUGGCAAAGUGGCCGUGGCUAGACUGCC", "self-cleavage": 0.22}
